Molecular target: HIV-1 Env of pseudovirus Du172.17 (HIV-1)
Assay: cell-based or functional assay
Catalogue of neutralization IC80 readings, one per entry.
Response body: numeric value in µg/mL, unit text excluded.

MS-70 (antibody, V domains shown) VH: QVQLVQSGPEVRKPGTSVKVSCKAPGNTLKTYDLHWVRSVPGQGLQWMGWISHEGDKKVIVERFKAKVTIDWDRSTNTAYLQLSGLTSGDTAVYYCAKGSKHRLRDYALYDDDGALNWAVDVDYLSNLEFWGQGTAVTVSS VL: DFVLTQSPHSLSVTPGESASISCKSSHSLIHGDRNNYLAWYVQKPGQSPQLLIYLASSRASGVPDRFSGSGSDKDFTLKISRVETEDVGTYYCMQGRESPWTFGQGTKVDIKR :: 6.05

Req: I would be grateful if you could share the reported neutralization IC80 for MS-72 (antibody, V domains shown) VH: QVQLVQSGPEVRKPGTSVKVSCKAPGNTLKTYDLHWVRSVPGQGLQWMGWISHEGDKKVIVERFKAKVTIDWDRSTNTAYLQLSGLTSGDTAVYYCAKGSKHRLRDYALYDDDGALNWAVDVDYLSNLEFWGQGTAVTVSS VL: DFVLTQSPHSLSVTPGESASISCKSSHSLIHGDRNNYLAWYVQKPGRSPQLLIYLASSRASGVPDRFSGSGSDTDFTLKISRVETEDVGTYYCMQGRESPWTFGQGTKVDIKR .
Resp: 8.76
